# measurementDescription: folding enthalpy; higher = less favourable; fluorescence melt of hairpins on a sequencing array, two-state fit
# measurementParameters: sodium 0.088 M
endpointLabel: folding enthalpy (kcal/mol)
Supply the numeric figure in kcal/mol, leaving out any unit text.

As a guide, the following entries are already answered.
# biosequence, endpointLabel, unitTag, numericValue
rows = [
    ("GGTCCTGGAAACGGGACC (((((.(....).)))))", "folding enthalpy", "kcal/mol", -57.4),
    ("GATCAACCCGTTGATC ((((((....))))))", "folding enthalpy", "kcal/mol", -42),
    ("GTGTACGGAAACGTATAC ((.((((....)))).))", "folding enthalpy", "kcal/mol", -29.1),
    ("GTCGCAGGAAACCACGAC ((((..(....)..))))", "folding enthalpy", "kcal/mol", -28),
    ("GCGTCTCACGC ((((...))))", "folding enthalpy", "kcal/mol", -23.4),
    ("GATCCGTGTACGGATC ((((((....))))))", "folding enthalpy", "kcal/mol", -45),
    ("GACGTAGGAAACCACGTC (((((.(....).)))))", "folding enthalpy", "kcal/mol", -29.5),
    ("GTCAGGGGAAACCCTGAC (((((((....)))))))", "folding enthalpy", "kcal/mol", -41.9),
    ("GCGTTCCGACGC ((((....))))", "folding enthalpy", "kcal/mol", -27.8),
    ("GCAATGCGAAAGCTATGC (((..((....))..)))", "folding enthalpy", "kcal/mol", -20.4),
]

Need folding enthalpy, item GAAAGACGAAAGTCATTC (((.(((....))).)))
-21.1

Where do the numbers come from? From the array DNA melting data of Ke et al. (doi:10.1101/2024.01.08.574731).
